- target or test system: T1, UNK ZnF1-6 (called full-length) (human, UniProt Q9C0B0 30-357)
- T1 sequence: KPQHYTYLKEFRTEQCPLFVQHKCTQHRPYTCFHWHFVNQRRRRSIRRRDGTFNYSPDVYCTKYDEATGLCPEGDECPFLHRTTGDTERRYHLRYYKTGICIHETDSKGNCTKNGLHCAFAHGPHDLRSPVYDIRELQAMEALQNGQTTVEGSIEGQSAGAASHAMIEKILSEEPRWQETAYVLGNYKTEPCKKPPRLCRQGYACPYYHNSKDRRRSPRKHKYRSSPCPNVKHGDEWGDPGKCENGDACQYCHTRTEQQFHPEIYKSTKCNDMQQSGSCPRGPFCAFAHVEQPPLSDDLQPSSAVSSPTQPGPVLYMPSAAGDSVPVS
- assay info: nsRBNS (natural sequence RNA bind-n-seq); RBNS binding buffer (assumed for nsRBNS): 25 mM Tris pH 7.5, 150 mM KCl, 3 mM MgCl2, 0.01% Triton X-100, 500 ug/ml BSA, 20 U/ml SUPERase-In, 4 C; UNK is unkempt and MSI1 is Musashi-1; names of the RNAs are library labels; protein concentration not given here; high values mean tight binding
The full ranking holds about 5,800 sequences; the median of “enrichment r” is about 0.68, and the highest 2% start at about 11. Many of the other results were omitted from the sample, so the highest values are more common in it than they were.
Doc: threshold 4 enrichment R (exclusive). Items with binding signal beneath it return MET; others return NOT MET.

Please let me know if chr2:16549458:16552935:-|three_prime_utr|ENSG00000197872|control|control|control (ssRNA) RNA: GGGAGUUCUACAGUCCGACGAUCUUGCUACUGGAGUCCUUUAACAACAUCUAUAACGAUAAAAAAUUCCUAAUUGUUUGUGGUAGUAUUUUAAUUCUAGAUGUGUUAUCUCUCUGGGAAGUAUAGUUUAUAGAAACACAAAAUCAACAGAGGAUUGAGCAUCA shows binding signal below 4 enrichment R.
NOT MET

Follow-up item: chr11:69651696:69651723:+|3pUTR|ENSG00000110092|msi1_unk|total|mutant (ssRNA) RNA: GGGAGUUCUACAGUCCGACGAUCGAGGAUCCGGUUCCAUCCUUUACGUGUUUAAAAAAAAGCAUAAAAACAUUUUAAAAACACCGAAAAAUUCAGCAAACCAUUUUUAAAGCCGAAGAGGGUUUCCGGCCGAAAAACAUAUUCCAACAGAGGAUUGAGCAUCA
MET

Follow-up item: chr11:69651696:69651723:+|3pUTR|ENSG00000110092|msi1_unk|FALSE|overlapping (ssRNA) RNA: GGGAGUUCUACAGUCCGACGAUCGAGGAUUAGGUUCCAUCCUUUACGUGUUUAAAAAAAAGCAUAAAAACAUUUUAAAAACAUAGAAAAAUUCAGCAAACCAUUUUUAAAGUAGAAGAGGGUUUUAGGUAGAAAAACAUAUUCCAACAGAGGAUUGAGCAUCA
NOT MET

Follow-up item: chr4:138171112:138171219:-|3pUTR|ENSG00000151012|msi1|FALSE|unique (ssRNA) RNA: GGGAGUUCUACAGUCCGACGAUCUUUUUUUUUUUCACAUCAGUUUGAUCAGGAAAGUGUAUAACACAUCUUAGAGCAAGAGUUAGUUUGGUAUUAAAUCCUCAUUAGAACAACCACCUGUUUCACUAAUAACUUACCCCUGAUCAACAGAGGAUUGAGCAUCA
MET

Follow-up item: chr4:168926953:168927063:+|3pUTR|ENSG00000129116|msi1_unk|FALSE|overlapping (ssRNA) RNA: GGGAGUUCUACAGUCCGACGAUCCAAAAGAGUUUUCUAACAAGGUUAAUACCUUAGUUCUUAACAUUUUUUUUCUUUAUGUGUAGUGUUUUCAUGCUACCUUGGUAGGAAACUUAUUUACAAACCAUAUUAAAAGGCUAAUUUCAACAGAGGAUUGAGCAUCA
NOT MET

Follow-up item: chr19:57593639:57593745:+|3pUTR|ENSG00000171649|unk|total|mutant (ssRNA) RNA: GGGAGUUCUACAGUCCGACGAUCUGAACCUUCUUAUUUCUCUACAUUCUUGCCAUACUUGGUAUGGUCCGUCUUUUUAAUUUCCGUUGUUUUAACCGCUGUAUAACCGCAUCUGUCUGUGAUUUUAUUGCAUUUUUCUGGUAUCAACAGAGGAUUGAGCAUCA
MET

Follow-up item: chr2:216672374:216672548:-|3pUTR|ENSG00000115461|msi1|FALSE|unique (ssRNA) RNA: GGGAGUUCUACAGUCCGACGAUCUUUUUCUUUUUUUUUUUGAAGACAGCAAUAACCACAGUACAUAUUACUGUAGUUCUCUAUAGUUUUACAUACAUUCAUACCAUAACUCUGUUCUCUCCUCUUUUUUGUUUUCAACUUUAACAACAGAGGAUUGAGCAUCA
NOT MET
